Cited source: patent US20190375844A1

Target: T1, recombinant hCD127 (Sino Biologicals, reference 10975-H08H) (human, UniProt P16871 21-239)
T1 construct: Bought recombinant protein; In the Blitz assay the protein is said to be captured by an Fc fragment, and a second catalogue number (11612-H08H) is printed; also called human CD127 recombinant protein; recombinant human CD127
T1 chain: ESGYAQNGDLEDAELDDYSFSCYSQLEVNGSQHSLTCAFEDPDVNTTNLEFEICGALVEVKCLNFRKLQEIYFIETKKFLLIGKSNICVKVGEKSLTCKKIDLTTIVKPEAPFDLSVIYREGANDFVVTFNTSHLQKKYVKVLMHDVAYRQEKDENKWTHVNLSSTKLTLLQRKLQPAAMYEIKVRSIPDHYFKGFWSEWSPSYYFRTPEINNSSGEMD
Assay: Blitz (BLI), hCD127 captured on anti-human IgG Fc (AHC) biosensor, antibody at 20 µg/mL
readout_name: kon (M⁻¹ s⁻¹)
Give bare numbers, in M⁻¹ s⁻¹.

Before answering, review these 3 worked examples.
- binder: "N13B2-hVL5 (antibody, V domains shown, also called N13B2-VL5-F87Y) VH: QVQLVESGGGLVKPGGSLRLSCAVSGFTLSDYYMAWIRQAPGKGLEWVSTISASGLRTYYPDSVKGRFTISRDNAKNSLYLQMNSLRAEDTAVYYCARPLSAHYGFNYFDYWGQGTLVTVSS VL: DIQMTQSPSSLSASVGDRVTITCRTSEDIYQGLAWYQQKPGKAPKLLVYSANTLHIGVPSRFSGSGSGTDYTLTISSLQPEDFATYYCQQYYDYPLAFGGGTKVEIKR"
  measurement_units: "M⁻¹ s⁻¹"
  kon: "1.01e+06"
- binder: "N13B2-hVL4 (antibody, V domains shown, also called N13B2-VL4-V48L) VH: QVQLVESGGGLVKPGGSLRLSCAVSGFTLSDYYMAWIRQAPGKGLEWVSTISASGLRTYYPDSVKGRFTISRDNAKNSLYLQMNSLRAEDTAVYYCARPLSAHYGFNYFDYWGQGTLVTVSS VL: DIQMTQSPSSLSASVGDRVTITCRTSEDIYQGLAWYQQKPGKAPKLLLYSANTLHIGVPSRFSGSGSGTDYTLTISSLQPEDFATYFCQQYYDYPLAFGGGTKVEIKR"
  measurement_units: "M⁻¹ s⁻¹"
  kon: "1.04e+06"
- binder: "N13B2-hVL6 (antibody, V domains shown, also called N13B2-h3VL6; N13B2-VL6-V48L-F87Y) VH: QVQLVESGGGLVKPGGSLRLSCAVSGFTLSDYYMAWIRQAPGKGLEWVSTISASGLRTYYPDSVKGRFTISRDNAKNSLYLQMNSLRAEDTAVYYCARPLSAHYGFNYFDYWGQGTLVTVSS VL: DIQMTQSPSSLSASVGDRVTITCRTSEDIYQGLAWYQQKPGKAPKLLLYSANTLHIGVPSRFSGSGSGTDYTLTISSLQPEDFATYYCQQYYDYPLAFGGGTKVEIKR"
  measurement_units: "M⁻¹ s⁻¹"
  kon: "1.05e+06"

// moving on: another record for kon
*Q* What does the record list as kon for N13B2-h3 (antibody, V domains shown, also called humanized N13B2 of WO 2015/189302) VH: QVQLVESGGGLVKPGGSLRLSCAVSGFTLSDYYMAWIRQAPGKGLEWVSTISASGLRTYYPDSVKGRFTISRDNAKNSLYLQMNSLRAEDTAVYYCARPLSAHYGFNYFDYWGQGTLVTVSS VL: EIVMTQSPATLSVSPGERATLSCRTSEDIYQGLAWYQQKPGQAPRLLIYSANTLHIGIPARFSGSGSGTEFTLTISSLQSEDFAVYYCQQYYDYPLAFGGGTKVEIKR ?
*A* 1.15e+06
